protocol-details: Cytotoxicity against mouse L929 cells assessed as reduction in cell viability after 5 days by MTT assay
Format: toxicity, cell-based
Hi! Just check whether IC50 at 5 days is below 50 µM. Below gives t, equal or above gives f.

Sample answers from the record:
INSERT INTO results (molecule, group_label) VALUES
  ('CN1C(=O)C23SSC4c5ccccc5O[C@]41C(=O)N2O[C@]1(C[C@H](O)[C@H](O)CC1=O)[C@H]3O (stereo not given in full)', 'f'),
  ('CSC1c2ccccc2O[C@]12C(=O)N1O[C@]3(CCC=CC3=O)[C@@H](O)C1(SC)C(=O)N2C (stereo not given in full)', 't'),
  ('C/C(=C\c1csc(C)n1)[C@@H]1C[C@@H]2O[C@@H]2CCC[C@H](C)[C@H](O)[C@@H](C)C(=O)C(C)(C)[C@H](O)CC(=O)O1', 't');

Please examine the following record next.
Task item: Check if IC50 at 5 days falls below 50 µM for CN1C(=O)C23SSC4c5ccccc5O[C@]41C(=O)N2O[C@]1(C[C@H](O)C=CC1=O)[C@H]3O (stereo not given in full) .
Reply: t

* * *

protocol-details: Cytotoxicity against human KB-3-1 cells assessed as reduction in cell viability after 5 days by MTT assay
Assay type: toxicity, cell-based
run-parameters: human, KB-3-1 cells
// IC50 at 5 days lookup, one value per entry
Express your answer in µM, writing the number without its unit.

Reference set (3 entries):
INSERT INTO measurements (molecule, measured_parameter, reported_result) VALUES
  ('CSC1c2ccccc2O[C@]12C(=O)N1O[C@]3(CCC=CC3=O)[C@@H](O)C1(SC)C(=O)N2C (some centres undefined)', 'IC50 at 5 days', 15),
  ('CN1C(=O)C23SSC4c5ccccc5O[C@]41C(=O)N2O[C@]1(C[C@H](O)[C@H](O)CC1=O)[C@H]3O (some centres undefined)', 'IC50 at 5 days', 54),
  ('C/C(=C\c1csc(C)n1)[C@@H]1C[C@@H]2O[C@@H]2CCC[C@H](C)[C@H](O)[C@@H](C)C(=O)C(C)(C)[C@H](O)CC(=O)O1', 'IC50 at 5 days', '4e-05');

Field: next molecule
Task item: Name the reported IC50 at 5 days value associated with the molecule CN1C(=O)C23SSC4c5ccccc5O[C@]41C(=O)N2O[C@]1(C[C@H](O)C=CC1=O)[C@H]3O (some centres undefined)
Reply: 49
